test: clinical; type: in vivo; settings: human, plasma, oral, 100 mg, AUC0–24, Day 1, 100 mg (n = 3), single dose; geometric mean (%CV)
PROPERTY NAME: AUC(0-t) (ng·h/mL)
The figure you give is taken to be in ng·h/mL; do not add the unit.

Q: Quick one: AUC(0-t) for CC(C)NC[C@@H](C(=O)N1CCN(c2ncnc3c2[C@H](C)C[C@H]3O)CC1)c1ccc(Cl)cc1 [Ipatasertib] ?
Result: 260

----------
test: clinical; type: in vivo; conditions: human, plasma, oral, 50 mg
PROPERTY NAME: half-life (h)
Could you give me the number in h? Just the number is fine.

Q: What measured half-life goes with CC(C)NC[C@@H](C(=O)N1CCN(c2ncnc3c2[C@H](C)C[C@H]3O)CC1)c1ccc(Cl)cc1 ?
Result: 10.1

----------
assay: clinical; format: in vivo; conditions: human, plasma, oral, 400 mg, tmax, Day 1, 400 mg (n = 3), single dose; median (range)
PROPERTY NAME: Tmax (h)
Respond with the bare value in h.

Q: Item CC(C)NC[C@@H](C(=O)N1CCN(c2ncnc3c2[C@H](C)C[C@H]3O)CC1)c1ccc(Cl)cc1 [Ipatasertib] has what recorded Tmax?
Result: 1

----------
experiment: clinical; type: in vivo; details: human, plasma, oral, 50 mg, Cmax, Day 15, 50 mg (n = 3), steady state; geometric mean (%CV)
PROPERTY NAME: Cmax (ng/mL)
Report the figure in ng/mL without appending any unit label.

Q: Consider the compound CC(C)NC[C@@H](C(=O)N1CCN(c2ncnc3c2[C@H](C)C[C@H]3O)CC1)c1ccc(Cl)cc1 [Ipatasertib] and give its measured Cmax.
Result: 33.9

----------
test: clinical; format: in vivo; settings: human, plasma, oral, 25 mg, tmax, Day 15, 25 mg (n = 3), steady state; median (range)
PROPERTY NAME: Tmax
Record the result as number plus unit.

Q: Reported Tmax for CC(C)NC[C@@H](C(=O)N1CCN(c2ncnc3c2[C@H](C)C[C@H]3O)CC1)c1ccc(Cl)cc1 [Ipatasertib] : what is it?
Result: 30 min

----------
test: clinical; type: in vivo; details: human, plasma, oral, 50 mg, AUC0–24,ss, Day 15, 50 mg (n = 3), steady state; geometric mean (%CV)
PROPERTY NAME: AUC(0-t) (ng·h/mL)
Write down the numeric answer in ng·h/mL and omit the unit.

Q: Value lookup for AUC(0-t); key = CC(C)NC[C@@H](C(=O)N1CCN(c2ncnc3c2[C@H](C)C[C@H]3O)CC1)c1ccc(Cl)cc1 [Ipatasertib]
Result: 171

----------
assay: clinical; type: in vivo; settings: human, plasma, oral, 100 mg, tmax, Day 1, 100 mg (n = 3), single dose; median (range)
PROPERTY NAME: Tmax (h)
# output: bare number, implied unit h

Q: Data request, read-out Tmax, for CC(C)NC[C@@H](C(=O)N1CCN(c2ncnc3c2[C@H](C)C[C@H]3O)CC1)c1ccc(Cl)cc1
Result: 2.97

----------
assay: clinical; format: in vivo; details: human, plasma, oral
PROPERTY NAME: half-life

Q: Look up half-life: CC(C)NC[C@@H](C(=O)N1CCN(c2ncnc3c2[C@H](C)C[C@H]3O)CC1)c1ccc(Cl)cc1
Result: 31.9 to 53 h
